Tested on: PC3 cells
test.protocol: NAMPT Cell Proliferation Assay (Cell Titer Glo; also performed in the presence of 0.3 mM nicotinamide mononucleotide)
Format: cell-based
measurement.conditions: Homo sapiens, PC-3, 120 h, 5 days incubation, cell viability by Cell Titer Glo
metric: IC50 (nM)

# compound, system.name, metric, meas.value
rows = [
    ("O=C(NC1CN2CCC1CC2)c1ccc(NC(=O)C2CN(c3cccnn3)C2)cc1 (centres unmarked)", "PC3 cells", "IC50", 1240),
    ("O=C(Nc1ccc(CC2CCN(C(=O)c3nccs3)CC2)cc1)C1CN(c2cccnn2)C1", "PC3 cells", "IC50", 2.77),
    ("Cc1ccc(N2CC(C(=O)Nc3ccc(C4CCN(C(=O)c5ccccc5)CC4)cc3)C2)cn1", "PC3 cells", "IC50", 29.2),
    ("O=C(Nc1ccc(CC2CCN(C(=O)c3ccccc3)CC2)cc1)C1CN(c2cccnn2)C1", "PC3 cells", "IC50", 2.15),
    ("CC(C)(C)CNC(=O)c1ccc(NC(=O)C2CN(c3cccnn3)C2)cc1", "PC3 cells", "IC50", 5.53),
    ("Cn1cccc1C(=O)N1CCC(Cc2ccc(NC(=O)C3CN(c4cccnn4)C3)cc2)CC1", "PC3 cells", "IC50", 5.95),
    ("O=C(Nc1ccc(CC2CCN(C(=O)c3cncs3)CC2)cc1)C1CN(c2cccnn2)C1", "PC3 cells", "IC50", 3.9),
    ("O=C(Nc1ccc(C2CCN(C(=O)c3ccccc3F)CC2)nc1)C1CN(c2cccnn2)C1", "PC3 cells", "IC50", 2.7),
    ("CC1(Cn2cc(-c3ccc(NC(=O)C4CN(c5cccnc5)C4)cc3)cn2)CCNCC1", "PC3 cells", "IC50", 29.6),
    ("O=C(Nc1ccc(C2(O)CCN(C(=O)c3ccccc3F)CC2)cc1)C1CN(c2cccnn2)C1", "PC3 cells", "IC50", 2.85),
    ("C=CCC(=O)N1CCC(Cc2ccc(NC(=O)C3CN(c4cccnn4)C3)cc2)CC1", "PC3 cells", "IC50", 6.06),
    ("CC1(CNC(=O)c2ccc(NC(=O)C3CN(c4cccnn4)C3)cc2)COC1", "PC3 cells", "IC50", 250),
    ("O=C(NCCC(F)(F)F)c1ccc(NC(=O)C2CN(c3cccnn3)C2)cc1", "PC3 cells", "IC50", 93.5),
    ("CC[C@H](C)NC(=O)c1ccc(NC(=O)C2CN(c3cccnn3)C2)cc1", "PC3 cells", "IC50", 1070),
    ("CCCCNC(=O)c1ccc(NC(=O)C2CN(c3cccnn3)C2)cc1", "PC3 cells", "IC50", 72),
    ("O=C(NC1CCC1)c1ccc(NC(=O)C2CN(c3cccnn3)C2)cc1", "PC3 cells", "IC50", 1510),
    ("CN1CCC(NC(=O)c2ccc(NC(=O)C3CN(c4cccnn4)C3)cc2)CC1", "PC3 cells", "IC50", 7470),
]
